Entries annotated with measured Her2 level
tgt: Receptor tyrosine-protein kinase erbB-2 (Homo sapiens) (UniProt P04626)
Sequence (P04626 whole entry, looked up): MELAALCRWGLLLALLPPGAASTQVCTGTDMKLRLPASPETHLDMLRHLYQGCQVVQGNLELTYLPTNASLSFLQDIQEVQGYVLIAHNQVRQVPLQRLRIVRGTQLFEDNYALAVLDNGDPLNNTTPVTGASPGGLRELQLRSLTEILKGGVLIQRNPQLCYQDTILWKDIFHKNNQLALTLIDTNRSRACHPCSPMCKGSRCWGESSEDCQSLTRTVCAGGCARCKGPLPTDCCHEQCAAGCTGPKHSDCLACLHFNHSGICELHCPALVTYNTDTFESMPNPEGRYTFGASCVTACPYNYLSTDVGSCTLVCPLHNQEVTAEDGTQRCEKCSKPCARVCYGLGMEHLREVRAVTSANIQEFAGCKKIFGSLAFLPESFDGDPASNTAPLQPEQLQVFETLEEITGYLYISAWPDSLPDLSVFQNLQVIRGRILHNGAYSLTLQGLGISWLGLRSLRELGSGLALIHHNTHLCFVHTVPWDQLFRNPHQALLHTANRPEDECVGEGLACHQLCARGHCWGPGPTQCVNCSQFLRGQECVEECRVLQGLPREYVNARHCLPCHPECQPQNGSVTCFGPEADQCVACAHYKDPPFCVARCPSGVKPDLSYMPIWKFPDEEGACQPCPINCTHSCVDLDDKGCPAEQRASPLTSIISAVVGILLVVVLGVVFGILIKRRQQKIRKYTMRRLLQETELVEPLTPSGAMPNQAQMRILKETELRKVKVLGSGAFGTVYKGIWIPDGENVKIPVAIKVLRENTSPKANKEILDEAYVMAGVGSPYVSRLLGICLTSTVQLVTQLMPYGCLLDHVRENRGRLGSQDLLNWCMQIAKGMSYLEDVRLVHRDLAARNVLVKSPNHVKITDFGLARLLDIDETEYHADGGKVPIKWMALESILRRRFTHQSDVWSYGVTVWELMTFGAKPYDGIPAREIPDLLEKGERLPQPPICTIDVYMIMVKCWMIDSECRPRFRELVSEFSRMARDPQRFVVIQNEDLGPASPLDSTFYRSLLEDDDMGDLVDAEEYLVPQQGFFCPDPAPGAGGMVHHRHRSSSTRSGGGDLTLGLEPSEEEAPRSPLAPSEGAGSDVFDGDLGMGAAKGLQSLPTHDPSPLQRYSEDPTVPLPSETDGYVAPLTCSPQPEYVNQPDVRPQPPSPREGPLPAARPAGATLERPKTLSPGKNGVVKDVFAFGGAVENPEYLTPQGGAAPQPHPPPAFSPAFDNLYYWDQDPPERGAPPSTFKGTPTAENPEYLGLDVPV
method-description: reducers of endogenous Her2 protein level, primary screen, SKBR3 breast tumor cells, AlphaScreen, ATP viability (AID 461);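 note: lower value means less Her2 protein in the cells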
conditions: 18-24 h, at 10 µM, active compounds read low
Calls of active or inactive are those of the source.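 Rule for the calls: active = Her2 level under about 52% in both replicate screens, with viability over 70% of control (limit read from the data); inconclusive = Her2 under the limit in one screen only, or viability under 70%; inactive = Her2 level above the set limit.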

Some compounds with recorded Her2 level:
                                   compound  measured_attribute   reported_result
0       COc1ccc(CCNc2oc(-c3ccco3)nc2C#N)cc1          Her2 level  81.5% (inactive)
1  CC1CCC(NC(=O)C2CCN(c3cnccn3)CC2)CC1 (stereo not drawn)          Her2 level    95% (inactive)
2  CCCCCC(=O)N1CC2(C)CN(C(=O)CCCCC)CC(C)(C1)C2=O          Her2 level    93% (inactive)
3  CCOC(=O)CSc1nc2ccccc2n1CC(=O)N1CCN(c2ccccc2)CC1          Her2 level  99.5% (inactive)
4  CCOC(=O)c1cccc(NC(=O)C2CCN(S(=O)(=O)c3cccs3)CC2)c1          Her2 level    96% (inactive)

Fill in the recorded Her2 level for this compound, with Receptor tyrosine-protein kinase erbB-2 (Homo sapiens) (UniProt P04626) as test system: CCOC(=O)NC(=O)CSc1nnnn1-c1ccc(Cl)cc1
94% (inactive)

Fill in the recorded Her2 level for this compound, with Receptor tyrosine-protein kinase erbB-2 (Homo sapiens) (UniProt P04626) as test system: COC(=O)c1ccc2c(=O)n(Cc3ccco3)c(SCC(=O)Nc3ccc(C)c(Cl)c3)nc2c1
59.5% (inactive)

Fill in the recorded Her2 level for this compound, with Receptor tyrosine-protein kinase erbB-2 (Homo sapiens) (UniProt P04626) as test system: O=C(O)C1CCCN1c1ncnc2c1oc1ccccc12 (stereo not drawn)
92% (inactive)

Fill in the recorded Her2 level for this compound, with Receptor tyrosine-protein kinase erbB-2 (Homo sapiens) (UniProt P04626) as test system: CCOC(=O)N1CCC(NC(=O)c2ccc3nc(N4CCOCC4)sc3c2)CC1
105% (inactive)

Fill in the recorded Her2 level for this compound, with Receptor tyrosine-protein kinase erbB-2 (Homo sapiens) (UniProt P04626) as test system: C=CCN(CC=C)C(=O)CN1C(=O)c2ccccc2C1=O
89.5% (inactive)

Fill in the recorded Her2 level for this compound, with Receptor tyrosine-protein kinase erbB-2 (Homo sapiens) (UniProt P04626) as test system: CCOC(=O)c1sc(NC(=O)CSc2nnc(-c3ccco3)n2CC)c(C(=O)OCC)c1C
71% (inactive)

Fill in the recorded Her2 level for this compound, with Receptor tyrosine-protein kinase erbB-2 (Homo sapiens) (UniProt P04626) as test system: N#C/C(C(=O)NCc1ccco1)=C1/SC(Cc2ccc(F)cc2)C(=O)N1c1ccccc1 (stereo not drawn)
84% (inactive)

Fill in the recorded Her2 level for this compound, with Receptor tyrosine-protein kinase erbB-2 (Homo sapiens) (UniProt P04626) as test system: Cc1ccc2nc(SC(C)C(=O)N3CCCC3)[nH]c2c1 (stereo not drawn)
108% (inactive)

Fill in the recorded Her2 level for this compound, with Receptor tyrosine-protein kinase erbB-2 (Homo sapiens) (UniProt P04626) as test system: Cc1sc2ncnc(SCC(=O)N3CCCC3)c2c1C
95.5% (inactive)

Fill in the recorded Her2 level for this compound, with Receptor tyrosine-protein kinase erbB-2 (Homo sapiens) (UniProt P04626) as test system: CC(=O)Nc1ccc(-c2cc3ccccc3o2)cc1
89% (inactive)

Fill in the recorded Her2 level for this compound, with Receptor tyrosine-protein kinase erbB-2 (Homo sapiens) (UniProt P04626) as test system: Cc1oc(-c2ccccc2F)nc1CS(=O)(=O)CC(=O)N1CCCCCC1
108% (inactive)

Fill in the recorded Her2 level for this compound, with Receptor tyrosine-protein kinase erbB-2 (Homo sapiens) (UniProt P04626) as test system: CCOc1ccc(C2C(C(=O)OC)=CN(CCOC)C=C2C(=O)OC)cc1
109% (inactive)

Fill in the recorded Her2 level for this compound, with Receptor tyrosine-protein kinase erbB-2 (Homo sapiens) (UniProt P04626) as test system: Cc1ccc(-c2nc3cc(N)ccc3o2)cc1
115% (inactive)

Fill in the recorded Her2 level for this compound, with Receptor tyrosine-protein kinase erbB-2 (Homo sapiens) (UniProt P04626) as test system: Oc1ccc(C=Nc2cccc3ncccc23)c(O)c1
84.5% (inactive)

Fill in the recorded Her2 level for this compound, with Receptor tyrosine-protein kinase erbB-2 (Homo sapiens) (UniProt P04626) as test system: NS(=O)(=O)c1ccc(NC(=O)N[C@@H](Cc2ccccc2)C(=O)O)cc1
95.5% (inactive)

Fill in the recorded Her2 level for this compound, with Receptor tyrosine-protein kinase erbB-2 (Homo sapiens) (UniProt P04626) as test system: O=C(CCCN1C(=O)c2ccccc2C1=O)N1CCC(c2ccccc2)C1 (stereo not drawn)
108% (inactive)

Fill in the recorded Her2 level for this compound, with Receptor tyrosine-protein kinase erbB-2 (Homo sapiens) (UniProt P04626) as test system: O=C(NCc1ccc2c(c1)OCO2)c1cccc2c1C(=O)N(C1CCCCC1)C2
72.5% (inactive)

Fill in the recorded Her2 level for this compound, with Receptor tyrosine-protein kinase erbB-2 (Homo sapiens) (UniProt P04626) as test system: O=C(c1ccc(Br)o1)N1CCN(c2ccc3nnc(-c4ccccc4)n3n2)CC1
78% (inactive)
